# credit: the RNAGym collection of RNA variant scans (doi:10.1073/pnas.2313332121)

polymerase ribozyme fitness (log ratio) values, listed per item
B1: TPR t1 (parent)
chain: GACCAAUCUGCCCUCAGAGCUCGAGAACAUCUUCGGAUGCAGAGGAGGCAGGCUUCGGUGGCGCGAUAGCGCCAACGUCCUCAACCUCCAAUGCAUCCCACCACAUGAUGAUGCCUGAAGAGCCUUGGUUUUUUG

# Variants of: B1
# Experimental Protocol: polymerase ribozyme fitness, log enrichment relative to wild type (log ratio); higher = more active; in vitro selection for triplet polymerase activity
# answer = number (no unit)

Please review the entries below; each comes with its answer.
variant_annotation="C62A C101U" value=-2.3
variant_annotation="C4U A18G" value=-3.62
variant_annotation="C3U C86G G110C C124A" value=-5.57
variant_annotation="A18U C79U C101G" value=-4.83
variant_annotation="G36C C76A U106A G110A" value=-4.36

Could you now consider this next variant?
(Q) Fill blank: measured polymerase ribozyme fitness (log ratio) of the variant C11U C62G C89U A121C C124G U125A is ____.
(A) -0.483
